experimental-protocol: Particle size and polydispersity of LNP containing pro-drug (dynamic light scattering)
Assay type: physicochemical
experimental-setup: LNP; pro-drug concentration 20 %
Lab note: anything with PdI below 0.07 is marked y; values at 0.07 or higher are marked n.

// below: answered compounds
[[record]]
compound = "CCCCC/C=C\\C/C=C\\CCCCCCCC(=O)O[C@@H](C/C=C\\CCCCCCCCOC(=O)c1ccccc1OC(C)=O)CCCCCC"
assigned_category = "y"

[[record]]
compound = "CCCCC/C=C\\C/C=C\\CCCCCCCC(=O)O[C@@H](C/C=C\\CCCCCCCCOC(=O)CC/C(C)=C/Cc1c(O)c2c(c(C)c1OC)COC2=O)CCCCCC"
assigned_category = "y"

[[record]]
compound = "CCCCCCCCC(OC(=O)CCCCC)C(CCCCCCCC(=O)OCC(=O)[C@@]1(O)[C@H](C)C[C@H]2[C@@H]3CCC4=CC(=O)C=C[C@]4(C)[C@@]3(F)[C@@H](O)C[C@@]21C)OC(=O)CCCCC (some centres unmarked)"
assigned_category = "n"

[[record]]
compound = "CCCCC/C=C\\C/C=C\\CCCCCCCC(=O)O[C@@H](C/C=C\\CCCCCCCCOC(=O)CCC(=O)OCC(=O)[C@@]1(O)[C@H](C)C[C@H]2[C@@H]3CCC4=CC(=O)C=C[C@]4(C)[C@@]3(F)[C@@H](O)C[C@@]21C)CCCCCC"
assigned_category = "n"

[[record]]
compound = "CCCCC/C=C\\C/C=C\\CCCCCCCC(=O)OC(CCCCCCCC)C(CCCCCCCC(=O)OCC(=O)[C@@]1(O)[C@H](C)C[C@H]2[C@@H]3CCC4=CC(=O)C=C[C@]4(C)[C@@]3(F)[C@@H](O)C[C@@]21C)OC(=O)CCCCCCC/C=C\\C/C=C\\CCCCC (some centres unmarked)"
assigned_category = "n"


Now consider a different compound.
Incoming: Criterion: PdI strictly below 0.07. Is it met by CCCCCC[C@H](C/C=C\CCCCCCCCOC(=O)c1ccccc1OC(C)=O)OC(=O)CCCCC ?
Outgoing: n

###

experimental-protocol: Particle size and polydispersity of LNP containing pro-drug (dynamic light scattering)
Format: physicochemical
experimental-setup: LNP; pro-drug concentration 80 %
Would you mind classing the entries by Size (nm)? Ranges: bottom range: < 80 nm; center range: ≥ 80 nm and < 90 nm; top range: ≥ 90 nm

Example cases with answers are listed next.
[[record]]
molecule = "CCCCCC[C@H](C/C=C\\CCCCCCCCOC(=O)c1ccccc1OC(C)=O)OC(=O)CCCCC [INT-D060]"
assigned_category = "bottom range"

[[record]]
molecule = "CCCCCC[C@H](C/C=C\\CCCCCCCCOC(=O)CC/C(C)=C/Cc1c(O)c2c(c(C)c1OC)COC2=O)OC(=O)CCCCC [INT-D062]"
assigned_category = "bottom range"

[[record]]
molecule = "CCCCC/C=C\\C/C=C\\CCCCCCCC(=O)OC(CCCCCCCC)C(CCCCCCCC(=O)OCC(=O)[C@@]1(O)[C@H](C)C[C@H]2[C@@H]3CCC4=CC(=O)C=C[C@]4(C)[C@@]3(F)[C@@H](O)C[C@@]21C)OC(=O)CCCCCCC/C=C\\C/C=C\\CCCCC (some centres unmarked) [INT-D086]"
assigned_category = "top range"

[[record]]
molecule = "CCCCCCCCC(OC(=O)CCCCC)C(CCCCCCCC(=O)OCC(=O)[C@@]1(O)[C@H](C)C[C@H]2[C@@H]3CCC4=CC(=O)C=C[C@]4(C)[C@@]3(F)[C@@H](O)C[C@@]21C)OC(=O)CCCCC (some centres unmarked) [INT-D085]"
assigned_category = "top range"

[[record]]
molecule = "CCCCCCCCCCCCCCCCCC(=O)O[C@@H](C/C=C\\CCCCCCCCOC(=O)CCC(=O)OCC(=O)[C@@]1(O)[C@H](C)C[C@H]2[C@@H]3CCC4=CC(=O)C=C[C@]4(C)[C@@]3(F)[C@@H](O)C[C@@]21C)CCCCCC [INT-D050]"
assigned_category = "top range"


Incoming: Which category fits this record: CCCCCC[C@H](C/C=C\CCCCCCCCOC(=O)CCC(=O)OCC(=O)[C@@]1(O)[C@H](C)C[C@H]2[C@@H]3CCC4=CC(=O)C=C[C@]4(C)[C@@]3(F)[C@@H](O)C[C@@]21C)OC(=O)CCCCC [INT-D034]
Outgoing: center range

Incoming: Entry CCCCC/C=C\C/C=C\C/C=C\C/C=C\CCCC(=O)O[C@@H](C/C=C\CCCCCCCCOC(=O)CCC(=O)OCC(=O)[C@@]1(O)[C@H](C)C[C@H]2[C@@H]3CCC4=CC(=O)C=C[C@]4(C)[C@@]3(F)[C@@H](O)C[C@@]21C)CCCCCC [INT-D051] belongs to which category?
Outgoing: center range

Incoming: Band assignment needed for CCCCC/C=C\C/C=C\CCCCCCCC(=O)O[C@@H](C/C=C\CCCCCCCCOC(=O)CCC(=O)OCC(=O)[C@@]1(O)[C@H](C)C[C@H]2[C@@H]3CCC4=CC(=O)C=C[C@]4(C)[C@@]3(F)[C@@H](O)C[C@@]21C)CCCCCC [INT-D045] please.
Outgoing: bottom range

###

experimental-protocol: Particle size and polydispersity of LNP containing pro-drug (dynamic light scattering)
Assay type: physicochemical
experimental-setup: LNP; pro-drug concentration 60 %
endpoint-label: Size (nm)
Please give a number only; it is taken to be in nm.

Before answering, review these 2 worked examples.
[[record]]
compound = "CCCCCC[C@H](C/C=C\\CCCCCCCCOC(=O)c1ccccc1OC(C)=O)OC(=O)CCCCC [INT-D060]"
value = 71

[[record]]
compound = "CCCCC/C=C\\C/C=C\\CCCCCCCC(=O)O[C@@H](C/C=C\\CCCCCCCCOC(=O)CC/C(C)=C/Cc1c(O)c2c(c(C)c1OC)COC2=O)CCCCCC [INT-D063]"
value = 57


Continue with the next compound.
Incoming: Provide one value: measured Size (nm) of CCCCC/C=C\C/C=C\CCCCCCCC(=O)OC(CCCCCCCC)C(CCCCCCCC(=O)OCC(=O)[C@@]1(O)[C@H](C)C[C@H]2[C@@H]3CCC4=CC(=O)C=C[C@]4(C)[C@@]3(F)[C@@H](O)C[C@@]21C)OC(=O)CCCCCCC/C=C\C/C=C\CCCCC (stereo partly drawn) [INT-D086]
Outgoing: 82

###

experimental-protocol: Particle size and polydispersity of LNP containing pro-drug (dynamic light scattering)
Type: physicochemical
experimental-setup: LNP formulations containing pro-drugs (10 mol %, FIG. 6A)
// values below are reported PdI
Format: numeric value only, no unit, no commentary.

Below are worked cases with known answers.
[[record]]
compound_string = "CCCCCCCCCCCC(=O)O[C@@H](C/C=C\\CCCCCCCCOC(=O)CCC(=O)OCC(=O)[C@@]1(O)[C@H](C)C[C@H]2[C@@H]3CCC4=CC(=O)C=C[C@]4(C)[C@@]3(F)[C@@H](O)C[C@@]21C)CCCCCC"
endpoint_label = "PdI"
value = 0.08

[[record]]
compound_string = "CCCCCCCCCCCCCCCCCC(=O)O[C@@H](C/C=C\\CCCCCCCCOC(=O)CCC(=O)OCC(=O)[C@@]1(O)[C@H](C)C[C@H]2[C@@H]3CCC4=CC(=O)C=C[C@]4(C)[C@@]3(F)[C@@H](O)C[C@@]21C)CCCCCC"
endpoint_label = "PdI"
value = 0.05


Incoming: Look up and report measured PdI for this entry: CCCCCCCC/C=C\CCCCCCCC(=O)O[C@@H](C/C=C\CCCCCCCCOC(=O)CCC(=O)OCC(=O)[C@@]1(O)[C@H](C)C[C@H]2[C@@H]3CCC4=CC(=O)C=C[C@]4(C)[C@@]3(F)[C@@H](O)C[C@@]21C)CCCCCC
Outgoing: 0.11

###

experimental-protocol: Particle size and polydispersity of LNP containing pro-drug (dynamic light scattering)
Format: physicochemical
experimental-setup: LNP; pro-drug concentration 60 %
endpoint-label: Size (nm)
Respond with the bare value in nm.

[[record]]
compound = "CCCCCC[C@H](C/C=C\\CCCCCCCCOC(=O)CCC(=O)OCC(=O)[C@@]1(O)[C@H](C)C[C@H]2[C@@H]3CCC4=CC(=O)C=C[C@]4(C)[C@@]3(F)[C@@H](O)C[C@@]21C)OC(=O)CCCCC"
unit_label = "nm"
value = 48

[[record]]
compound = "CCCCC/C=C\\C/C=C\\CCCCCCCC(=O)O[C@@H](C/C=C\\CCCCCCCCOC(=O)c1ccccc1OC(C)=O)CCCCCC"
unit_label = "nm"
value = 72

[[record]]
compound = "CC/C=C\\C/C=C\\C/C=C\\CCCCCCCC(=O)O[C@@H](C/C=C\\CCCCCCCCOC(=O)CCC(=O)OCC(=O)[C@@]1(O)[C@H](C)C[C@H]2[C@@H]3CCC4=CC(=O)C=C[C@]4(C)[C@@]3(F)[C@@H](O)C[C@@]21C)CCCCCC"
unit_label = "nm"
value = 61


Incoming: Name the recorded Size (nm) of the item CCCCCCCCC(OC(=O)CCCCC)C(CCCCCCCC(=O)OCC(=O)[C@@]1(O)[C@H](C)C[C@H]2[C@@H]3CCC4=CC(=O)C=C[C@]4(C)[C@@]3(F)[C@@H](O)C[C@@]21C)OC(=O)CCCCC (some centres unmarked) in your answer.
Outgoing: 56

Incoming: Name the recorded Size (nm) of the compound listed here: CCCCCC[C@H](C/C=C\CCCCCCCCOC(=O)CC/C(C)=C/Cc1c(O)c2c(c(C)c1OC)COC2=O)OC(=O)CCCCC
Outgoing: 70

Where do these numbers come from? They come from patent US20220226480A1.
